- System: HOP-92
- TEST_SUMMARY: NCI tumour cell line growth inhibition, 48 h
Active and inactive are the calls of the source. Rule as the data show it: active = GI50 up to about 1.1 µM and inactive = higher.
Documented GI50 across a set of compounds

COMPOUND	GI50
CC(C)CNCCc1ccccn1	> 100 µM (inactive)
O=C(Cc1ccc(OCc2cccc(Cl)c2)cc1)NO	41 µM (inactive)
Cc1ccc(C(=O)N/N=C(\N=N\c2ccccc2C(=O)O)c2ccc(N(C)C)cc2)cc1	> 100 µM (inactive)
CC(=O)Nc1ccc(OCC(O)CO)cc1 (stereo unspecified)	> 100 µM (inactive)
O=C(CCc1nnc2s/c(=C\c3ccccc3[N+](=O)[O-])c(=O)n12)Nc1cc(Cl)c(Cl)cc1Cl	18.7 µM (inactive)
CCOC(=O)CCn1cnc(N)n1	> 100 µM (inactive)
NC(Cc1c[nH]c2cc([N+](=O)[O-])ccc12)C(=O)O (stereo unspecified)	67.6 µM (inactive)
Cc1ncc(C/N=C/c2ccc(Cl)cc2)c(N)n1	> 100 µM (inactive)
NS(=O)(=O)c1ccc(NNC(=O)c2cccc3c(=O)c4ccccc4[nH]c23)cc1	34.4 µM (inactive)
CCSc1c2ccccc2nc2c(OC)ccc(OC)c12	22.3 µM (inactive)
COC[C@@H](/N=C/N1CCc2cc(OC)c(OC)cc2[C@@H]1C)C(C)(C)C	> 100 µM (inactive)

###

Listed here: items and their measured GI50.
- System: SNB-19
- TEST_SUMMARY: NCI tumour cell line growth inhibition, 48 h
Activity calls are given as the source filed them. No stated cut-off is given here; in the data, active = GI50 up to about 1.1 µM and inactive = higher.

COMPOUND	MEASUREMENT_TARGET	GI50
Cc1cc(N)c2cc(NC(=O)CCCCCCCCC(=O)Nc3ccc4nc(C)cc(N)c4c3)ccc2n1	SNB-19	> 38.4 µM (inactive)
CC(=O)Nc1ccc(OCC(O)CO)cc1 (configuration not stated)	SNB-19	> 100 µM (inactive)
N#Cc1nc(/C=C/c2ccccc2)oc1N	SNB-19	> 100 µM (inactive)
COc1cccc2c1[C@H]1OC(=O)NC1CCCCC2 (some centres not stated)	SNB-19	> 100 µM (inactive)
O=C1/C(=C/c2cccc(Br)c2)CCc2ccccc21	SNB-19	14.7 µM (inactive)
C=CCN1CCC23c4c5ccc(O)c4OC2C(=NN=C2CCC4(O)C6Cc7ccc(O)c8c7C4(CCN6CC=C)C2O8)CCC3(O)C1C5 (configuration not stated)	SNB-19	44.3 µM (inactive)
Cc1ccccc1NC(=O)C(=O)c1c(O)c2ccc(O)cc2oc1=O	SNB-19	> 100 µM (inactive)
O=C(O)c1ccc([N+](=O)[O-])c(P(=O)(O)O)c1	SNB-19	> 100 µM (inactive)
COc1ccc(C(=O)O)c2c(=O)c3cccnc3[nH]c12	SNB-19	> 100 µM (inactive)
CCOc1c(Br)cc(Br)cc1C=C(C#N)C#N	SNB-19	5.73 µM (inactive)
C=CCNC(=S)N/C=C(\C#N)C(N)=O	SNB-19	> 100 µM (inactive)
Oc1cccnc1/C=N/OCc1ccccc1	SNB-19	> 100 µM (inactive)

###

- Tested on: LOX IMVI
- TEST_SUMMARY: NCI tumour cell line growth inhibition, 48 h
Active and inactive are the calls of the source. No stated cut-off is given here; in the data, active = GI50 up to about 1.1 µM and inactive = higher.

COMPOUND	MEASUREMENT_TARGET	GI50
COc1cc2c(cc1OC)-c1cc3ccccc3c(=O)n1CC2	LOX IMVI	10.3 µM (inactive)
CC1C(=O)CCC1C(Sc1ccccc1)(Sc1ccccc1)Sc1ccccc1 (stereo not drawn)	LOX IMVI	21 µM (inactive)
COc1cc2c(cc1OCCCC(=O)Nc1cc(C(=O)Nc3cc(C(=O)NCCCN(C)C)n(C)n3)n(C)n1)N=CC1CCCN1C2=O (stereo not drawn)	LOX IMVI	20.7 µM (inactive)
